# System: K98450-129-R-PDC multicell spheroids, viability
# method notes: Anticancer human tumor K98450-129-R-PDC patient-derived colon adenocarcinoma cell line growth inhibition [PI3K]
# experimental parameters: curve of first compound; second compound 1 µM
result type: IC50 (µM)
# number only, unit µM dropped from output

Find IC50 for C#Cc1c(F)ccc2cc(O)cc(-c3ncc4c(N5CC6CCC(C5)N6)nc(OCC56CCCN5CC(F)C6)nc4c3F)c12 (stereo not given) + COc1c(OCCCN2CCOCC2)ccc2c3n(c(=NC(=O)c4cnc(N)nc4)nc12)CCN3 on K98450-129-R-PDC multicell spheroids, viability and write it down.
2.44

Find IC50 for C[C@@H](NC(=O)c1ncnc(N)c1Cl)c1ncc(C(=O)Nc2cc(C(F)(F)F)c(Cl)cn2)s1 + COc1c(OCCCN2CCOCC2)ccc2c3n(c(=NC(=O)c4cnc(N)nc4)nc12)CCN3 on K98450-129-R-PDC multicell spheroids, viability and write it down.
4.39

----------
Consider the following compounds; for each one, report its pIC50.
# Test system: K98450-129-R-PDC multicell spheroids, viability
# method notes: Anticancer human tumor K98450-129-R-PDC cell line growth inhibition [PI3K];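 further: spheroids exposed to agents for seven days before read-out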
# experimental parameters: curve of first compound; second compound 1 µM
Please note pIC50 is a logarithmic value: minus log10 of concentration in mol/L. Answer with that number alone.

Input CC1(C)CCC(Nc2ncc(C(F)(F)F)c(-c3c[nH]c4c(P(C)(C)=O)c(C#N)ccc34)n2)CN1 (stereo not given) + COc1c(OCCCN2CCOCC2)ccc2c3n(c(=NC(=O)c4cnc(N)nc4)nc12)CCN3 , output reported pIC50.
7.50

Input C=CC(=O)N1CCN(c2nc(=O)n(-c3c(C)ccnc3C(C)C)c3nc(-c4c(O)cccc4F)c(F)cc23)C(C)C1 (stereo not given) + CC(Nc1ccc2c(c1)OCCn1cc(N3C(=O)OCC3C(F)F)nc1-2)C(N)=O , output reported pIC50.
5.73

----------
# Test system: K98450-129-R-PDC multicell spheroids, viability
# method notes: Anticancer human tumor K98450-129-R-PDC cell line growth inhibition [PI3K];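 further: spheroids exposed to agents for seven days before read-out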
# experimental parameters: second compound 1 µM; first compound 1 µM; stronger effect = lower value
result type: viability, T/C (%)
# number only, unit % dropped from output

Input C[C@@H](NC(=O)c1ncnc(N)c1Cl)c1ncc(C(=O)Nc2cc(C(F)(F)F)c(Cl)cn2)s1 + Cc1nc(NC(=O)N2CCCC2C(N)=O)sc1-c1ccnc(C(C)(C)C(F)(F)F)c1 , output reported viability, T/C.
102

Input CC1(C)CCC(Nc2ncc(C(F)(F)F)c(-c3c[nH]c4c(P(C)(C)=O)c(C#N)ccc34)n2)CN1 (stereo not drawn) + COc1c(OCCCN2CCOCC2)ccc2c3n(c(=NC(=O)c4cnc(N)nc4)nc12)CCN3 , output reported viability, T/C.
42.7

Input Cn1ncc(Cl)c1-c1cc(C(=O)NC(CN)Cc2cccc(F)c2)sc1Cl (stereo not drawn) + CC(Nc1ncnc2nc[nH]c12)c1cc2cccc(Cl)c2c(=O)n1-c1ccccc1 , output reported viability, T/C.
80.8

----------
Consider the following compounds; for each one, report its viability, T/C.
# Tested on: K98450-129-R-PDC multicell spheroids, viability
# method notes: Anticancer human tumor K98450-129-R-PDC cell line growth inhibition [PI3K];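 further: spheroids exposed to agents for seven days before read-out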
# experimental parameters: second compound 0.0316 µM; first compound 0.1 µM; stronger effect = lower value
# number only, unit % dropped from output

Find viability, T/C for Cn1nccc1Nc1nccc(-c2ccn(C(CO)c3ccc(Cl)c(F)c3)c(=O)c2)n1 (stereo not given) + COc1c(OCCCN2CCOCC2)ccc2c3n(c(=NC(=O)c4cnc(N)nc4)nc12)CCN3 on K98450-129-R-PDC multicell spheroids, viability and write it down.
88.6

Find viability, T/C for C=CC(=O)N1CCN(c2nc(=O)n(-c3c(C)ccnc3C(C)C)c3nc(-c4c(O)cccc4F)c(F)cc23)C(C)C1 (stereo not given) + Cc1nc(NC(=O)N2CCCC2C(N)=O)sc1-c1ccnc(C(C)(C)C(F)(F)F)c1 on K98450-129-R-PDC multicell spheroids, viability and write it down.
102

Find viability, T/C for CC(C)n1nc(-c2ccc3oc(N)nc3c2)c2c(N)ncnc21 + COc1c(OCCCN2CCOCC2)ccc2c3n(c(=NC(=O)c4cnc(N)nc4)nc12)CCN3 on K98450-129-R-PDC multicell spheroids, viability and write it down.
56.9

Find viability, T/C for Cn1nccc1Nc1nccc(-c2ccn(C(CO)c3ccc(Cl)c(F)c3)c(=O)c2)n1 (stereo not given) + CC(Nc1ccc2c(c1)OCCn1cc(N3C(=O)OCC3C(F)F)nc1-2)C(N)=O on K98450-129-R-PDC multicell spheroids, viability and write it down.
103

Find viability, T/C for C#Cc1c(F)ccc2cc(O)cc(-c3ncc4c(N5CC6CCC(C5)N6)nc(OCC56CCCN5CC(F)C6)nc4c3F)c12 (stereo not given) + Cc1nc(NC(=O)N2CCCC2C(N)=O)sc1-c1ccnc(C(C)(C)C(F)(F)F)c1 on K98450-129-R-PDC multicell spheroids, viability and write it down.
97.4

----------
# Test system: K98450-129-R-PDC multicell spheroids, viability
# method notes: Anticancer human tumor K98450-129-R-PDC cell line growth inhibition [PI3K];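 further: spheroids exposed to agents for seven days before read-out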
# experimental parameters: second compound 0.1 µM; first compound 0.01 µM; stronger effect = lower value
Consider the following compounds; for each one, report its viability, T/C.

Find viability, T/C for CC(C)n1nc(-c2ccc3oc(N)nc3c2)c2c(N)ncnc21 + Cc1nc(NC(=O)N2CCCC2C(N)=O)sc1-c1ccnc(C(C)(C)C(F)(F)F)c1 on K98450-129-R-PDC multicell spheroids, viability and write it down.
91%

Find viability, T/C for CC(=O)c1c(C)c2cnc(Nc3ccc(N4CCNCC4)cn3)nc2n(C2CCCC2)c1=O + CC(Nc1ncnc2nc[nH]c12)c1cc2cccc(Cl)c2c(=O)n1-c1ccccc1 on K98450-129-R-PDC multicell spheroids, viability and write it down.
96.1%

Find viability, T/C for CC(=O)c1c(C)c2cnc(Nc3ccc(N4CCNCC4)cn3)nc2n(C2CCCC2)c1=O + Cc1nc(NC(=O)N2CCCC2C(N)=O)sc1-c1ccnc(C(C)(C)C(F)(F)F)c1 on K98450-129-R-PDC multicell spheroids, viability and write it down.
93.7%

Find viability, T/C for CC(C)n1nc(-c2ccc3oc(N)nc3c2)c2c(N)ncnc21 + COc1c(OCCCN2CCOCC2)ccc2c3n(c(=NC(=O)c4cnc(N)nc4)nc12)CCN3 on K98450-129-R-PDC multicell spheroids, viability and write it down.
78.7%

Find viability, T/C for CC(C)n1nc(-c2ccc3oc(N)nc3c2)c2c(N)ncnc21 + CC(Nc1ccc2c(c1)OCCn1cc(N3C(=O)OCC3C(F)F)nc1-2)C(N)=O on K98450-129-R-PDC multicell spheroids, viability and write it down.
91.3%

----------
# System: K98450-129-R-PDC multicell spheroids, viability
# method notes: Anticancer human tumor K98450-129-R-PDC cell line growth inhibition [PI3K];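 further: spheroids exposed to agents for seven days before read-out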
# experimental parameters: compound 0.316 µM; stronger effect = lower value
# From the text: Combinatorial screen of targeted agents with the PI3K inhibitors inavolisib, alpelisib, duvelisib, and copanlisib in multi-cell type tumor spheroids A high-throughput screen of multi-cell type tumor spheroids was designed to identify active combinations of targeted small molecules and PI3K pathway inhibitors. […] Compounds. […] If the clinical Cmax for an agent had not been determined, the highest concentration tested was 10 microM. […]
Consider the following molecules; for each one, report its viability, T/C.

Input CC(C)NCC(C(=O)N1CCN(c2ncnc3c2C(C)CC3O)CC1)c1ccc(Cl)cc1 (stereo not given) , output reported viability, T/C.
105% [middle of 4 runs]

Input CC1(C)CCC(CN2CCN(c3ccc(C(=O)NS(=O)(=O)c4ccc(NCC5CCOCC5)c([N+](=O)[O-])c4)c(Oc4cnc5[nH]ccc5c4)c3)CC2)=C(c2ccc(Cl)cc2)C1 , output reported viability, T/C.
107% [middle of 4 runs]

Input Cc1nc(NC(=O)N2CCCC2C(N)=O)sc1-c1ccnc(C(C)(C)C(F)(F)F)c1 (stereo not given) , output reported viability, T/C.
102% [middle of 8 runs]

Input C=CC(=O)N1CCN(c2nc(=O)n(-c3c(C)ccnc3C(C)C)c3nc(-c4c(O)cccc4F)c(F)cc23)C(C)C1 (stereo not given) , output reported viability, T/C.
102% [middle of 4 runs]

Input Cn1ncc(Cl)c1-c1cc(C(=O)NC(CN)Cc2cccc(F)c2)sc1Cl (stereo not given) , output reported viability, T/C.
107% [middle of 4 runs]

----------
# System: K98450-129-R-PDC multicell spheroids, viability
# method notes: Anticancer human tumor K98450-129-R-PDC cell line growth inhibition [PI3K];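 further: spheroids exposed to agents for seven days before read-out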
# experimental parameters: second compound 0.00316 µM; first compound 0.000316 µM; stronger effect = lower value
Consider the following compounds; for each one, report its viability, T/C.
# number only, unit % dropped from output

Input Cn1ncnc1[C@H]1c2n[nH]c(=O)c3cc(F)cc(c23)N[C@@H]1c1ccc(F)cc1 + COc1c(OCCCN2CCOCC2)ccc2c3n(c(=NC(=O)c4cnc(N)nc4)nc12)CCN3 , output reported viability, T/C.
98.6

Input Cn1ncnc1[C@H]1c2n[nH]c(=O)c3cc(F)cc(c23)N[C@@H]1c1ccc(F)cc1 + CC(Nc1ccc2c(c1)OCCn1cc(N3C(=O)OCC3C(F)F)nc1-2)C(N)=O , output reported viability, T/C.
112

Input CC(=O)c1c(C)c2cnc(Nc3ccc(N4CCNCC4)cn3)nc2n(C2CCCC2)c1=O + COc1c(OCCCN2CCOCC2)ccc2c3n(c(=NC(=O)c4cnc(N)nc4)nc12)CCN3 , output reported viability, T/C.
114

Input CC(C)n1nc(-c2ccc3oc(N)nc3c2)c2c(N)ncnc21 + COc1c(OCCCN2CCOCC2)ccc2c3n(c(=NC(=O)c4cnc(N)nc4)nc12)CCN3 , output reported viability, T/C.
107

Input CC(=O)c1c(C)c2cnc(Nc3ccc(N4CCNCC4)cn3)nc2n(C2CCCC2)c1=O + CC(Nc1ccc2c(c1)OCCn1cc(N3C(=O)OCC3C(F)F)nc1-2)C(N)=O , output reported viability, T/C.
113

Input CC(C)n1nc(-c2ccc3oc(N)nc3c2)c2c(N)ncnc21 + CC(Nc1ccc2c(c1)OCCn1cc(N3C(=O)OCC3C(F)F)nc1-2)C(N)=O , output reported viability, T/C.
106
